Reference source: patent US20250206828A1

TARGET: T1, human adenosine A2A receptor (A2aR) (human, UniProt P29274 1-412)
T1 construct: Assays used HEK293 cells stably overexpressing human A2aR (BPS Bioscience 79381), human A2aR-expressing CHO cells, or endogenous A2aR on human PBMC; also called human A2aR; hA2aR
T1 sequence (P29274 whole entry): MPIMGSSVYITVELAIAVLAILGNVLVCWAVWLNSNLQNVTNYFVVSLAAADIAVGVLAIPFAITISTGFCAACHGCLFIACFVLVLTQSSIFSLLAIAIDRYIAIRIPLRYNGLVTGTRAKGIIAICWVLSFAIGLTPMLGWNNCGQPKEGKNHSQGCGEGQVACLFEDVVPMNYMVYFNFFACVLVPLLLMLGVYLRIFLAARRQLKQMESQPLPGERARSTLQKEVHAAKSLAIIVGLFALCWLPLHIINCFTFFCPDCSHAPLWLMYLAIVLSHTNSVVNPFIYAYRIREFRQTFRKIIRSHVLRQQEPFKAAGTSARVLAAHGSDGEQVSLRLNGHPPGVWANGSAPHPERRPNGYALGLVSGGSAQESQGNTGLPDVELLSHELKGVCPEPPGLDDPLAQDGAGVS
EXPERIMENT_DESCRIPTION: flow cytometry, HEK293-hA2aR cells, supernatant 1 ug/ml
Cut-off 800 MFI on MFI: below means criterion met, at or above means criterion not met.

BINDER	LABEL_VALUE
Hu1B5-H5/Hu1B5-L2 (antibody, human IgG1, V domains shown, Human IgG1 FES (L234F, L235E, P331S) and human Ig kappa constant domains) VH: EVQLVQSGAEVKKPGASVKVSCKTSGFTFTRFWMNWVRQAPGQGLEWIGRIDPYDSETQYAHKFWDRATLTVDKSSSTVYMELSSLRSEDTAVYYCGRSLYGKGDYWGQGTTVTVSS VL: DVVMTQSPLSLPVTLGQPASISCRSSQSIVHSNGNTYLEWYQQRPGQSPRRLIYKVSNRFSGVPDRFSGSGSGTDFTLKISRVEAEDVGVYYCFQGSHVPLTFGGGTKVEIK	criterion met
Hu1B5-H6/Hu1B5-L4 (antibody, human IgG1, V domains shown, Human IgG1 FES (L234F, L235E, P331S) and human Ig kappa constant domains) VH: EVQLVQSGAEVKKPGESLRISCKTSGFTFTRFWMNWVRQMPGKGLEWIGRIDPYDSETQYNHKFWDHATLSVDKSSSTVYLQWSSLKASDTAMYYCGRSLYGKGDYWGQGTTVTVSS VL: DVVMTQSPLSLPVTPGEPASISCRSSQSIVHSNGNTYLEWYLQKPGQSPQLLIYKVSNRFSGVPDRFSGSGSGTDFTLKISRVEAEDVGVYYCFQGSHVPLTFGGGTKVEIK	criterion not met
Hu1B5-H5/Hu1B5-L4 (antibody, human IgG1, V domains shown, Human IgG1 FES (L234F, L235E, P331S) and human Ig kappa constant domains) VH: EVQLVQSGAEVKKPGASVKVSCKTSGFTFTRFWMNWVRQAPGQGLEWIGRIDPYDSETQYAHKFWDRATLTVDKSSSTVYMELSSLRSEDTAVYYCGRSLYGKGDYWGQGTTVTVSS VL: DVVMTQSPLSLPVTPGEPASISCRSSQSIVHSNGNTYLEWYLQKPGQSPQLLIYKVSNRFSGVPDRFSGSGSGTDFTLKISRVEAEDVGVYYCFQGSHVPLTFGGGTKVEIK	criterion not met
Hu1B5-H2/Hu1B5-L5 (antibody, human IgG1, V domains shown, Human IgG1 FES (L234F, L235E, P331S) and human Ig kappa constant domains) VH: EVQLVQSGAEVKKPGASVKVSCKTSGFTFTRFWMNWVRQAPGQGLEWMGRIDPYDSETQYNHKFWDRVTMTVDTSTSTVYMELSSLRSEDTAVYYCGRSLYGKGDYWGQGTTVTVSS VL: DIVMTQSPDSLAVSLGERATINCRSSQSIVHSNGNTYLEWYQQKPGQPPKLLIYKVSNRFSGVPDRFSGSGSGTDFTLTISSLQAEDVAVYYCFQGSHVPLTFGGGTKVEIK	criterion met
